Experiment: solvent given as SMILES
Details: in Cc1ccccc1
Value kind: absorption maximum (nm)

[
  {
    "Compound": "CCN(CC)c1ccc(-c2cc3c(s2)c(C(=O)OC)cc(=O)n3C)cc1",
    "Test result": 434
  },
  {
    "Compound": "CCN(CC)c1ccc(-c2nc3c(c4c2-c2ccccc2CC4)-c2ccccc2CC3)cc1",
    "Test result": 359
  },
  {
    "Compound": "CN(C)c1ccc(-c2ccc(-c3cc(N4CCCCC4)c(C#N)c4c3-c3ccccc3CC4)s2)cc1",
    "Test result": 377
  },
  {
    "Compound": "COCCC1=Cc2nc1ccc1[nH]c(cc1CCOC)c1nc(c(NC(=O)CCCC(=O)O)cc3[nH]c2cc3CCOC)C(CCOC)=C1",
    "Test result": 645
  },
  {
    "Compound": "CC(C)[Si](C#Cc1c2ccccc2c(C#Cc2c3ccccc3c(C#Cc3c4ccccc4c(C#Cc4c5ccccc5c(C#C[Si](C(C)C)(C(C)C)C(C)C)c5ccccc45)c4ccccc34)c3ccccc23)c2ccccc12)(C(C)C)C(C)C",
    "Test result": 582
  },
  {
    "Compound": "CN(C)c1ccc2nc(/C=C/c3cc4c5c(c3)CCCN5CCC4)c(=O)oc2c1",
    "Test result": 505.5
  },
  {
    "Compound": "CCn1c2ccccc2c2cc(/C=C/c3cccc(/C=C/c4ccc5c(c4)c4ccccc4n5CC)[n+]3CCCS(=O)(=O)[O-])ccc21",
    "Test result": 453
  },
  {
    "Compound": "N#Cc1c(N2c3ccccc3C(c3ccccc3)(c3ccccc3)c3ccccc32)cccc1N1c2ccccc2C(c2ccccc2)(c2ccccc2)c2ccccc21",
    "Test result": 369
  },
  {
    "Compound": "CC(C)(C(=O)c1ccc(N2c3ccccc3C(C)(C)c3ccccc32)cc1)C(=O)c1ccc(N2c3ccccc3C(C)(C)c3ccccc32)cc1",
    "Test result": 390
  },
  {
    "Compound": "CN(C)c1ccc(C#Cc2ccccc2)cc1",
    "Test result": 326.3
  },
  {
    "Compound": "Cc1ccc2c(c1)C1(c3ccccc3Oc3ccccc31)c1cc(C)ccc1N2c1ccc(-c2nc(-c3ccccc3)cc(-c3ccccc3)n2)cc1",
    "Test result": 378
  },
  {
    "Compound": "COCCC1=Cc2nc1ccc1[nH]c(cc1CCOC)c1nc(ccc3[nH]c2cc3CCO)C(CCOC)=C1",
    "Test result": 637
  },
  {
    "Compound": "O=C1c2cccc3c(NCc4ccccn4)c4ccccc4c(c23)C(=O)N1Cc1ccccn1",
    "Test result": 517
  },
  {
    "Compound": "N#C/C(=C/Nc1ccc(C#N)cc1)c1nc(-c2ccccc2)cs1",
    "Test result": 377
  },
  {
    "Compound": "c1ccc(-c2nc(-c3ccccc3)nc(-c3ccc(N4c5ccccc5C5(c6ccccc64)c4ccccc4N(c4ccc(-c6nc(-c7ccccc7)nc(-c7ccccc7)n6)cc4)c4ccccc45)cc3)n2)cc1",
    "Test result": 400
  },
  {
    "Compound": "CCN(CC)c1ccc(/C=C/c2ccc(-c3ccc(/C=C/c4ccc(N(CC)CC)cc4)s3)s2)cc1",
    "Test result": 467.9
  },
  {
    "Compound": "O=C(/C=C/c1cn(-c2ccccc2)nc1-c1ccccc1)c1c(O)c2ccccc2oc1=O",
    "Test result": 409
  },
  {
    "Compound": "Cc1cc(C)c(B(c2c(C)cc(C)cc2C)c2c(C)cc(-n3c4ccccc4c4cc(N(c5ccccc5)c5ccccc5)ccc43)cc2C)c(C)c1",
    "Test result": 375
  },
  {
    "Compound": "CCN1c2ccc(/C=N/Nc3ccccn3)cc2Sc2cc(-c3ccccc3)ccc21",
    "Test result": 382
  },
  {
    "Compound": "CC1(C)c2ccccc2N(c2ccc(-c3cnc(C#N)nc3)cc2)c2ccccc21",
    "Test result": 384
  },
  {
    "Compound": "N#Cc1cccc(C#N)c1-c1ccc(N2c3ccccc3C3(c4ccccc42)c2ccccc2N(c2ccc(-c4c(C#N)cccc4C#N)cc2)c2ccccc23)cc1",
    "Test result": 371.03
  },
  {
    "Compound": "Nc1cccc2cccc(N)c12",
    "Test result": 334
  },
  {
    "Compound": "F[B-]1(F)N2C(=Nc3cccc4cccc2c34)c2cccc[n+]21",
    "Test result": 354
  },
  {
    "Compound": "Cc1ccc(N(c2ccc(C)cc2)c2ccc(-c3c4ccccc4c(-c4ccc(N(c5ccc(C)cc5)c5ccc(C)cc5)cc4)c4nsnc34)cc2)cc1",
    "Test result": 538
  },
  {
    "Compound": "COCCC1=Cc2nc1ccc1[nH]c(cc1CCOC)c1nc(c(NC(=O)CCCC(=O)OC)cc3[nH]c2cc3CCOC)C(CCOC)=C1",
    "Test result": 670
  },
  {
    "Compound": "COc1ccc2c(c1)c1ccccc1n2-c1nc2ccccc2nc1-n1c2ccccc2c2cc(OC)ccc21",
    "Test result": 423
  },
  {
    "Compound": "CCN(CC)c1ccc(/C=C/C2=[O+][B-](F)(F)Oc3c2c(=O)oc2cc(N(CC)CC)ccc32)cc1",
    "Test result": 567
  },
  {
    "Compound": "CCCCCCCCCCCCCCCCOc1cc(C#Cc2ccc3ccccc3c2-c2c(C#Cc3cc(OCCCCCCCCCCCCCCCC)c(C#Cc4ccc(C=C(C#N)C#N)cc4)cc3OCCCCCCCCCCCCCCCC)ccc3ccccc23)c(OCCCCCCCCCCCCCCCC)cc1C#Cc1ccc(C=C(C#N)C#N)cc1",
    "Test result": 436
  },
  {
    "Compound": "CCCCCCCCCCCCC(CCCCCCCCCC)Cn1c2cc(/C=C/c3nc4ccccc4s3)c3cccc4c5cccc6c(/C=C/c7nc8ccccc8s7)cc1c(c65)c2c34 (stereo unspecified)",
    "Test result": 524
  },
  {
    "Compound": "CCn1c2ccccc2c2cc(C#Cc3cc(C#Cc4ccc5c(c4)c4ccccc4n5CC)nc(OC)n3)ccc21",
    "Test result": 389
  },
  {
    "Compound": "CCC1=C(C)C2=C(C)c3c(C)c(CC)c(C)n3[B-](F)(F)[N+]2=C1C",
    "Test result": 522.5
  }
]
